Test: Phase 1 Part 1b: food effect, single 300 mg dose fasted/fed, plasma pharmacokinetics
Assay type: in vivo, human
Conditions: human, plasma, po, single oral dose 300 mg, fed condition, healthy elderly subjects, arithmetic mean
PROPERTY MEASURED: half-life

Lookup: So what's the measured half-life for this one? CC(=O)Nc1nnc(N2CCN([C@@H](C)c3ccc4c(c3)OCO4)CC2)s1
Found: 7.06 h

* * *

Experiment: Phase 1 Part 1a: single rising oral doses, fasted, plasma pharmacokinetics
Format: in vivo, human
Conditions: male, human, plasma, po, 1000 mg, single oral dose 1000 mg, fasted, healthy male subjects, plasma, arithmetic mean; read-out: t1/2 (converted)
PROPERTY MEASURED: half-life (h)
One number for each entry, in h.

Lookup: So what's the measured half-life for this one? CC(=O)Nc1nnc(N2CCN([C@@H](C)c3ccc4c(c3)OCO4)CC2)s1
Found: 6.6
